Molecular target: recombinant human ghrelin receptor (HEK293/GRLN) (Homo sapiens, UniProt Q92847)
Construct: expressed in transfected cells
Sequence (Q92847 whole entry): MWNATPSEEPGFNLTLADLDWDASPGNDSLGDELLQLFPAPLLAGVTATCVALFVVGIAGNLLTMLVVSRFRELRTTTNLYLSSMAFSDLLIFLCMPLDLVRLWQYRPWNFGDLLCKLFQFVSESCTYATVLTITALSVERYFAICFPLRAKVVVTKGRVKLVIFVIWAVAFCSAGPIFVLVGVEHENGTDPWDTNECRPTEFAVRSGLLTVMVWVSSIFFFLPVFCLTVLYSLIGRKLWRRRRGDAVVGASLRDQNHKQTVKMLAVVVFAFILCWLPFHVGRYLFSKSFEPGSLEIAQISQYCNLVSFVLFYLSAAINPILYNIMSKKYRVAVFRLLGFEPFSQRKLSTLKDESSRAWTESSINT
Assay: Ghrelin inverse agonist potency (EC50) with IP-1 (IP-One HTRF) assay
Type: cell-based
Settings: inverse agonist potency, IP-1 assay; read-out: EC50 (Activity)
pEC50: −log10 of the molar value.
Here, each record is paired with measured pEC50 data.
MEASUREMENT KIND: pEC50

COMPOUND	MEASUREMENT KIND	REPORTED MEASUREMENT
C[C@H](NC(=O)Nc1ccc(S(=O)(=O)Cc2ccc(CO)cc2)cc1)c1cccc(Cl)c1Cl	pEC50	7.39
C[C@H](NC(=O)Nc1ccc(S(=O)(=O)Nc2ccc3[nH]cnc3c2)cc1)c1cccc(Cl)c1Cl	pEC50	5.91
C[C@H](NC(=O)Nc1ccc(S(=O)(=O)Cc2ccc(CN)cc2)cc1)c1cccc(Cl)c1Cl	pEC50	6.94
CCN1Cc2ccc(C(C)(C)S(=O)(=O)c3ccc(NC(=O)NC(C)c4ccccc4)cc3)cc2C1 (stereo not shown)	pEC50	6.51

====

Experiment: Plasma protein binding (PPB), dog
Format: in vitro ADME
Details: read-out: PPB (D) (converted)
Reported fraction unbound is given for each of the following molecules.
MEASUREMENT KIND: fraction unbound

SMI	REPORTED MEASUREMENT
C[C@H](NC(=O)Nc1ccc(S(=O)(=O)Cc2ccc3c(c2)CCN(C)C3)cc1)c1cccc(Cl)c1Cl	0.0082
C[C@H](NC(=O)Nc1ccc(S(=O)(=O)Cc2ccc(CO)cc2)cc1)c1cccc(Cl)c1Cl	0.0012
C[C@H](NC(=O)Nc1ccc(S(=O)(=O)Nc2ccc(CO)cc2)cc1)c1cccc(Cl)c1Cl	0.0017

====

Experiment: Plasma protein binding (PPB), dog
Assay type: in vitro ADME
Conditions: read-out: PPB (D) (converted)
MEASUREMENT KIND: fraction unbound

MOLECULE	REPORTED MEASUREMENT
CC(NC(=O)Nc1ccc(S(=O)(=O)Nc2ccc3c(c2)CCN(C)C3)cc1)c1cccc(Cl)c1Cl (stereo not shown)	0.0015

====

Target: GHSR-1a (HEK293/GHSR1a cell line) (Homo sapiens, UniProt Q92847)
Construct: expressed in transfected cells; host or cells: HEK293/GHSR1a cell line
Sequence (Q92847 whole entry): as above
Assay: Ghrelin antagonist potency (IC50) with calcium FLIPR assay, ghrelin 10 nM
Assay type: cell-based
Details: ghrelin antagonist potency, read-out: IC50 (Activity)
pIC50: −log10 of the molar value.
Below, each entry is listed alongside its reported pIC50.

COMPOUND	VALUE OPERATOR	pIC50
COc1ccc(C(C)NC(=O)Nc2ccc(S(=O)(=O)Cc3ccc(CO)cc3)cc2)c2ccccc12 (stereo not shown)	≤	4.52
COc1ccc(C(C)NC(=O)Nc2ccc(S(=O)(=O)Nc3ccc(CO)cc3)cc2)c2ccccc12 (stereo not shown)	≤	4.52
COc1ccc([C@H](C)NC(=O)Nc2ccc(S(=O)(=O)Nc3ccc4c(c3)CCN(C)C4)cc2)c(Cl)c1Cl	=	7.14
CC(NC(=O)Nc1ccc(S(=O)(=O)Nc2ccc3c(c2)CNC3)cc1)c1ccccc1.Cl (stereo not shown)	=	7.99

====

Below, each entry is listed alongside its reported Metabolic Stability Study M = mouse.
Experiment: Metabolic stability in mouse liver microsomes
Type: in vitro ADME

MOLECULE	Metabolic Stability Study M = mouse [µL/min/mg]
C[C@H](NC(=O)Nc1ccc(S(=O)(=O)Nc2ccnc(N)n2)cc1)c1cccc(Cl)c1Cl	14.9
COc1ccccc1C(C)NC(=O)Nc1ccc(S(=O)(=O)Cc2ccc3c(c2)CNC3)cc1 (centres unmarked)	43.4
CCc1ccc(Cl)c(C(C)NC(=O)Nc2ccc(S(=O)(=O)Cc3ccc4c(c3)CNC4)cc2)c1 (centres unmarked)	47.8
CC(NC(=O)Nc1ccc(S(=O)(=O)Cc2ccc(CN3CCCC3)cc2)cc1)c1ccccc1 (centres unmarked)	247
C[C@H](NC(=O)Nc1ccc(S(=O)(=O)Nc2cnc(N)nc2)cc1)c1cccc(Cl)c1Cl	47.5
CN1Cc2ccc(CS(=O)(=O)c3ccc(NC(=O)NC(c4ccccc4)C(F)(F)F)cc3)cc2C1 (centres unmarked)	79.9
CC(NC(=O)Nc1ccc(S(=O)(=O)Cc2ccc3c(c2)CNC3)cc1)c1ccc(F)cc1 (centres unmarked)	11.2
C[C@@H](NC(=O)Nc1ccc(S(=O)(=O)Cc2ccc3c(c2)CN(C)C3)cc1)c1ccccc1 [H1300]	42.1

====

Assay: Metabolic stability in human liver microsomes
Assay type: in vitro ADME

COMPOUND	Metabolic Stability Study H = human
C[C@@H](NC(=O)Nc1ccc(S(=O)(=O)Cc2ccc3c(c2F)CNC3)cc1)c1ccccc1	62.5 µL/min/mg
COc1cc(S(=O)(=O)Cc2ccc3c(c2)CN(C)C3)ccc1NC(=O)NC(C)c1ccccc1 (centres unmarked)	58.1 µL/min/mg
COc1cc(S(=O)(=O)Cc2ccc3c(c2)CCNC3)ccc1NC(=O)NC(C)c1ccccc1 (centres unmarked)	< 10 µL/min/mg
CC(NC(=O)Nc1ccc(S(=O)(=O)Cc2ccc3c(c2)CCNC3)cc1C(=O)O)c1cccc(Cl)c1Cl (centres unmarked)	< 10 µL/min/mg
CC(NC(=O)Nc1ccc(S(=O)(=O)Cc2ccc3c(c2)CN(C)C3)cc1)c1ccc(F)cc1 (centres unmarked)	108.7 µL/min/mg
C[C@H](NC(=O)Nc1ccc(S(=O)(=O)Nc2cnc(N)nc2)cc1)c1cccc(Cl)c1Cl	38.7 µL/min/mg
CC(NC(=O)Nc1ccc(S(=O)(=O)Cc2cnc3c(c2)CN(C)C3)cc1)c1ccccc1 (centres unmarked)	84.1 µL/min/mg
CC(NC(=O)Nc1ccc(S(=O)(=O)Cc2ccc3c(c2)CN(C)C3)cc1)c1cccc2ccccc12 (centres unmarked)	201.7 µL/min/mg

====

Items are presented alongside their recorded EC50.
Biological target: GHSR-1a (HEK293/GHSR1a cell line) (Homo sapiens, UniProt Q92847)
Construct: expressed in transfected cells; host or cells: HEK293/GHSR1a cell line
Experiment: Ghrelin agonist potency (EC50) with calcium FLIPR assay
Assay type: cell-based
Settings: HEK293/GHSR1a, read-out: Activity EC50/EMax: EC50 (ghrelin agonist potency)

MOLECULE	EC50
CC(NC(=O)Nc1ccc(S(=O)(=O)Nc2ccc3c(c2)CN(C)C3)cc1)c1ccccc1 (centres unmarked)	> 30 µM
CC(NC(=O)Nc1ccc(S(=O)(=O)Cc2ccc3c(c2)CNC3)cc1)c1ccccc1F (centres unmarked)	> 30 µM
CC(NC(=O)Nc1ccc(S(=O)(=O)Cc2ccc3c(c2)C[N+](C)([O-])C3)cc1)c1ccccc1 (centres unmarked)	> 30 µM
COc1cccc(OC)c1C(C)NC(=O)Nc1ccc(S(=O)(=O)Cc2ccc3c(c2)CNC3)cc1 (centres unmarked)	> 30 µM
CC(NC(=O)Nc1ccc(S(=O)(=O)Cc2ccc3c(c2)CNC3)cc1)c1cccc(F)c1 (centres unmarked)	> 30 µM
CC(NC(=O)Nc1ccc(S(=O)(=O)Nc2ccc3c(c2)CCN(C)C3)cc1)c1cccc(F)c1F (centres unmarked)	> 30 µM
CC(NC(=O)Nc1ccc(S(=O)(=O)Cc2ccc3nn(C)cc3c2)cc1)c1ccccc1 (centres unmarked)	> 30 µM
CC(NC(=O)Nc1ccc(S(=O)(=O)Cc2ccc(CN3CCOCC3)cc2)cc1)c1ccccc1 (centres unmarked)	> 30 µM
CCc1ccc(Cl)c(C(=O)NC(=O)Nc2ccc(S(=O)(=O)Cc3ccc(CO)cc3)cc2)c1	> 30 µM
CCc1ccc(Cl)c(C(C)NC(=O)Nc2ccc(S(=O)(=O)Cc3ccc4c(c3)CN(C)C4)cc2)c1 (centres unmarked)	> 30 µM
CC(NC(=O)Nc1ccc(S(=O)(=O)Cc2ccncc2)cc1)c1ccccc1 (centres unmarked)	> 30 µM
CCN(CC)CCCS(=O)(=O)c1ccc(NC(=O)NC(C)c2cccc(Cl)c2Cl)cc1 (centres unmarked)	> 30 µM
CC(NC(=O)Nc1ccc(S(=O)(=O)Cc2ccc3c(c2)CNC3)cc1)c1cccnc1 (centres unmarked)	> 30 µM
C[C@@H](NC(=O)Nc1ccc(S(=O)(=O)Cc2cc3c(s2)CN(C)C3)cc1)c1ccccc1	> 30 µM
CC(NC(=O)Nc1ccc(S(=O)(=O)Cc2ccc3c(c2)CCN(C)C3)cc1)c1cccc(F)c1F (centres unmarked)	> 30 µM
CC(NC(=O)Nc1ccc(S(=O)(=O)Cc2cc3c(s2)CN(C)CC3)cc1)c1cccc(Cl)c1Cl (centres unmarked)	> 30 µM
CCc1ccc(Cl)c(C(=O)NC(=O)Nc2ccc(S(=O)(=O)Nc3ccc4c(c3)CNC4)cc2)c1	> 30 µM
COc1cccc(OC)c1C(C)NC(=O)Nc1ccc(S(=O)(=O)Cc2ccc3c(c2)CN(C)C3)cc1 (centres unmarked)	> 30 µM
CCc1ccc(Cl)c(C(C)NC(=O)Nc2ccc(S(=O)(=O)Cc3ccc4c(c3)CNC4)cc2)c1 (centres unmarked)	> 30 µM
COc1ccc(C(C)NC(=O)Nc2ccc(S(=O)(=O)Cc3ccc4c(c3)CCN(C)C4)cc2OC)cc1 (centres unmarked)	> 30 µM
COc1cc(S(=O)(=O)Cc2ccc(CO)cc2)ccc1NC(=O)NC(C)c1cccc(Cl)c1Cl (centres unmarked)	> 30 µM
CC(NC(=O)Nc1ccc(S(=O)(=O)Cc2ccc3c(c2F)CCN(C)C3)cc1)c1cccc(Cl)c1Cl (centres unmarked)	> 30 µM
C[C@@H](NC(=O)Nc1ccc(S(=O)(=O)Cc2ccc3c(c2)CN(C)C3)cc1)c1ccccc1 [H1356]	> 30 µM
CCN(CC)c1ccc(CS(=O)(=O)c2ccc(NC(=O)NC(C)c3cccc(Cl)c3Cl)cc2)cc1 (centres unmarked)	> 30 µM
CC(NC(=O)Nc1ccc(S(=O)(=O)Cc2ccc(CO)cc2)cc1)c1cccc(Cl)c1Cl (centres unmarked)	> 30 µM
CC(NC(=O)Nc1ccc(S(=O)(=O)Cc2ccc3c(c2)CNC3)cn1)c1ccccc1 (centres unmarked)	> 30 µM
